The origin of these recorded values is patent US20190270809A1.

- System name: T1, human BASIGIN recombinant protein (human, UniProt P35613-2 22-205, limits assumed)
- T1 construct: also called hBASIGIN
- T1 sequence (looked up): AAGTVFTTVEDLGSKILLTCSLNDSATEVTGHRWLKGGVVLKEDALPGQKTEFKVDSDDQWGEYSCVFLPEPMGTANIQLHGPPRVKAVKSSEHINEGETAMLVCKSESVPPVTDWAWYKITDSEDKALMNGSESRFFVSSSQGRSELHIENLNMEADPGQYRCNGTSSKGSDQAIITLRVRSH
- Test: SPR (ProteOn XPR36), human BASIGIN amine-coupled on chip, antibody as analyte
pKd: −log10 of the molar value.
Endpoint name: pKd

| Binder | Endpoint name | Experimental result |
| --- | --- | --- |
| humanized antibody HP6H8-3 (antibody, V domains shown, Derived from scFv clone 11242; also called WBP229-203; pCI-WBP229-203L/H) VH: EVQLVESGGGLVQPGGSLKLSCAASGFTFSNFWMNWVRQAPGKGLEWVAEIRLKSNNYATHYAESVKGRFTISRDDSKNTLYLQMNSLKTEDTAVYYCTSYDYEYWGQGTLVTVSA VL: DIQMTQSPSSLSASVGDRVTLTCKASENVGTYVSWYQQKPGQAPKLLIYGASNRYTGVPSRFTGSGSGTDFTLTISSLQPDDFATYYCGQSYSYPFTFGSGTKLEIK | pKd | 9.99 |
